Where do the numbers come from? From the supplement of paper PMC11208160.

- EXPERIMENT_DESCRIPTION: recombinant UMI read abundance after kanamycin selection (control-corrected) (log10(CPM+1)); higher = more efficient recombination; extreme values may be limits of the assay; sequences stand for … in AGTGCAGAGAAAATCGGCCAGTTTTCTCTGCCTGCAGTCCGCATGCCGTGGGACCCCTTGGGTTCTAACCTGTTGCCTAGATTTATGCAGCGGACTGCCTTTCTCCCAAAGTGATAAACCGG…AGGTTGGTTTCACT; site = the 11-nt donor;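 further: IS621 bridge recombinase in Escherichia coli cells against a fixed T5 target plasmid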
Returns one of TRUE or FALSE; TRUE when recombinant UMI read abundance (log10) is >= 0.4.

SEQUENCE: TATTATGCATGGACCGGTTTTCCCGGTAATCCGTATTTGGA (site TATTATGCTTC)
CLASS_ASSIGNMENT: FALSE

SEQUENCE: AGCCTTTCATGGACCGGTTTTCCCGGTAATCCGTATTTGAC (site CGCCTTTCTGT)
CLASS_ASSIGNMENT: FALSE

SEQUENCE: CCATACTCATGGACCGGTTTTCCCGGTAATCCGTATTTGGC (site CCATACTCTGC)
CLASS_ASSIGNMENT: TRUE

SEQUENCE: CCCGGTACATGGACCGGTTTTCCCGGTAATCCGTATTTGCA (site CCCGGTACTTG)
CLASS_ASSIGNMENT: TRUE

SEQUENCE: CACTGCTCATGGACCGGTTTTCCCGGTAATCCGTATTTGAA (site CAGTGCTCTTT)
CLASS_ASSIGNMENT: FALSE

SEQUENCE: GCGGCACCATGGACCGGTTTTCCCGGTAATCCGTATTTGCA (site GCGGCACCTTG)
CLASS_ASSIGNMENT: FALSE

SEQUENCE: CCGAGTTCATGGACCGGTTTTCCCGGTAATCCGTATTTGTT (site CCGAGTTCTAA)
CLASS_ASSIGNMENT: TRUE

SEQUENCE: CTTGAGACATGGACCGGTTTTCCCGGTAATCCGTATTTGGT (site CTTGAGACTAC)
CLASS_ASSIGNMENT: TRUE

SEQUENCE: CGGTATCCATGGACCGGTTTTCCCGGTAATCCGTATTTGAT (site CGGAATCCTAA)
CLASS_ASSIGNMENT: FALSE

SEQUENCE: CCACGGACATGGACCGGTTTTCCCGGTAATCCGTATTTGGT (site CCACGGACTAC)
CLASS_ASSIGNMENT: FALSE

SEQUENCE: TCACGCCCATGGACCGGTTTTCCCGGTAATCCGTATTTGCT (site TCACGCCCTAG)
CLASS_ASSIGNMENT: TRUE

SEQUENCE: GTCAGAACATGGACCGGTTTTCCCGGTAATCCGTATTTGGC (site GTAAGAACTGC)
CLASS_ASSIGNMENT: FALSE

SEQUENCE: GGGATCGCATGGACCGGTTTTCCCGGTAATCCGTATTTGCT (site GGGATCGCTAG)
CLASS_ASSIGNMENT: TRUE

SEQUENCE: ACTGCAGCATGGACCGGTTTTCCCGGTAATCCGTATTTGCA (site ACTGCAGCTTG)
CLASS_ASSIGNMENT: TRUE

SEQUENCE: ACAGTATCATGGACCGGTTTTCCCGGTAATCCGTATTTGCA (site ACAATATCTAG)
CLASS_ASSIGNMENT: FALSE

SEQUENCE: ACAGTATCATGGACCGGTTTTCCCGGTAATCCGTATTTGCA (site TCAGTTTCTTG)
CLASS_ASSIGNMENT: TRUE

SEQUENCE: TATTTGCCATGGACCGGTTTTCCCGGTAATCCGTATTTGTG (site TATTTGCCTCA)
CLASS_ASSIGNMENT: FALSE

SEQUENCE: AGCCTAGCATGGACCGGTTTTCCCGGTAATCCGTATTTGTT (site AGCCTATCTAA)
CLASS_ASSIGNMENT: FALSE
